protocolDetails: Selectivity index, ratio of IC50 for rat L6 cells to IC50 for Plasmodium falciparum K1
Assay type: toxicity
appliedConditions: read-out: Ratio IC50
resultType: selectivity ratio
Just the number.

selectivity ratio reading for Cn1c2nc3ccccc3c-2cc2ccccc21 [NEOCRYPTOLEPINE] : 1.9

selectivity ratio reading for "CN(C)CCNc1nc2ccccc2c2[nH]c3ccccc3c12" : 7.6

selectivity ratio reading for "COC(=O)c1ccc2nc3n(C)c4ccccc4c(NCCCN)c-3c2c1" : 7.2

selectivity ratio reading for "Cn1c2nc3ccccc3c-2c(NCCCNC(=S)Nc2ccccc2)c2ccccc21" : 11

* * *

protocolDetails: Cytotoxicity against rat L6 cells assessed as cell growth inhibition
Assay type: toxicity, cell-based
resultType: pIC50
pIC50 is a log-scale quantity: -log10 of the concentration expressed in molar.

pIC50 reading for "Cn1c2nc3ccccc3c-2c(NCC(C)(C)CNC(=O)Nc2ccccc2)c2ccccc21" : 5.25

pIC50 reading for "Cn1c2nc3ccccc3c-2c(NCC(C)(C)CNC(=O)Nc2ccccc2)c2cc(Cl)ccc21" : 5.93

pIC50 reading for "Cn1c2nc3ccccc3c-2c(NCC(C)(C)CNC(=S)Nc2ccccc2)c2ccccc21" : 5.14

pIC50 reading for "Cn1c2nc3ccccc3c-2c(NCC(C)(C)CNC(=S)Nc2ccccc2)c2cc(Cl)ccc21" : 5.49

pIC50 reading for "CN(C)CCNc1nc2ccccc2c2[nH]c3ccccc3c12" : 6.20

Recorded values, source ChEMBL document CHEMBL5113378.
